Molecular target: Neurotensin receptor type 1 (Homo sapiens)
Experiment: NTR1 agonists, single-dose retest, confirmation, imaging, U2OS cells, beta-arrestin-GFP, single concentration (AID 504550);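 also: 0% = DMSO without peptide and 100% = 100 nM NTR1 peptide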
Conditions: NTR1-U2OS beta-arrestin-GFP translocation imaging; at 20 µM
Some of the results follow. Activity calls are given as the source filed them.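 The calls were made as follows: active = mean activation at 20 µM of at least 40%; inactive = the rest.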
The reply should name one outcome from active, inactive

Known results for molecules:
O=C(/C(=C/c1cccc(Cl)c1)c1nc2ccccc2[nH]1)c1ccccc1
active
CCCCCCCCCCOC(=O)Cn1c(COc2cccc(OC)c2)[n+](C)c2ccccc21
active
CCOC(=O)CSC1=C(C#N)C(c2ccco2)C(C(=O)OCc2ccccc2)=C(C)N1 (configuration not stated)
inactive
CC(C)c1ccccc1OCC(O)CN(CC(O)COc1cccc2ccccc12)C(C)C (configuration not stated)
inactive
CC(C)(C)OC(=O)N1CCC(NC(=O)c2[nH]cnc2C(=O)N[C@@H](Cc2ccccc2)C(=O)OCc2ccccc2)CC1
active

Query string: What outcome does the record of this test show for Cc1cccc(-n2c(SCC(N)=O)nc3c(c2=O)C2(CCCCC2)Cc2ccccc2-3)c1 ?
Result string: inactive

Query string: What outcome does the record of this test show for COc1cccc(/C=N/Nc2cc(C)nc(-c3ccccc3O)n2)c1O ?
Result string: inactive

Query string: What outcome does the record of this test show for O=C(N/N=C/c1ccc(OC(=O)c2ccccc2Cl)cc1)c1ccc(O)cc1 ?
Result string: active

----------
Biological target: Neurotensin receptor type 1 (Homo sapiens) (UniProt P30989)
Sequence (P30989 whole entry, looked up): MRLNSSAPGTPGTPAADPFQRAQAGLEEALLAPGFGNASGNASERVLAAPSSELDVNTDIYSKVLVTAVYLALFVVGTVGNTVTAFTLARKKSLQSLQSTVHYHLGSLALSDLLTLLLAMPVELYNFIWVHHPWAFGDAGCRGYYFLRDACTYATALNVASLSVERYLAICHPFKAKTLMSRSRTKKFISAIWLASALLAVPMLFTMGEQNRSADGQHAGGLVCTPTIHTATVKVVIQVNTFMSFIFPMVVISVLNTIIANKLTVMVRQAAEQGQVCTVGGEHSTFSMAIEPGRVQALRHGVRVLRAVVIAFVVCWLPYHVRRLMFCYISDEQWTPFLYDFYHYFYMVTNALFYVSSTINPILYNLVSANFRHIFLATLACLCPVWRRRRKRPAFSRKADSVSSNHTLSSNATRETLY
Assay: NTR1 agonists, single-dose retest, confirmation, imaging, U2OS cells, beta-arrestin-GFP, single concentration (AID 504550);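 also: 0% = DMSO without peptide and 100% = 100 nM NTR1 peptide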
Details: NTR1-U2OS beta-arrestin-GFP translocation imaging; at 20 µM; active compounds read high
The list shows a part of the results.
testReadout: activation (%)
// note: answer is a bare numeric in %

The following molecules have reported results that may help.
OC(CN=c1sc2ccccc2n1CC(O)COc1ccccc1)COc1ccccc1 (centres undefined)
18.2
CC(C)Cn1c(N)c(C(=O)NCc2cccs2)c2nc3ccccc3nc21
21
Nc1nc(Nc2ccccc2F)nc(NC2CCCCC2)c1[N+](=O)[O-]
13.2

Value of activation reported for the molecule CCCCNc1c(-c2cccc(Sc3ccc(OC)cc3)c2)nc2ccccn12 is 68.2
